Molecular target: Glycine N-methyltransferase (Homo sapiens)
Experiment: Primary Screen for Target Class Profiling of Small Molecule Inhibitors of Methyltransferases; note: % is set by controls: 0 for no effect and ±100 for the full control effect
Conditions: purified enzyme, MTase-Glo SAH luminescence; measured here: GNMT inhibition; at 40 µM; stronger effect = lower value
Description: PI: Matthew D. Hall Ph.D. and Quinlin M. Hanson Ph.D. National Center for Advancing Translational Sciences (NCATS) National Institute of Health (NIH), Rockville, MD […] High-through put screening assays were developed at the National Center for Advancing Translational Science (NCATS) for the enzymes NNMT, PNMT, HNMT, GNMT, COMT, and GAMT. Enzymatic activity was measured as a function of SAM cofactor conversion using the MTase Glo kit (Promega) for all enzymes. […]
Out of some 25,000 compounds screened, about 970 (3.9%) were called active. About 8% were inconclusive and are not listed. The full list was thinned out, with actives kept by preference.
assay-metric: activity change, negative = inhibition (%)
Form entry: value (%) — number only.

Query: Specify measured activity change, negative = inhibition for Cc1ccc(NC(=O)Cn2nc3n(C(C)C)c(=O)c4ccc(C(=O)NC5CCCCC5)cc4n3c2=O)cc1 .
Reply: 4.18

Query: Specify measured activity change, negative = inhibition for O=C(NCc1ccc(Cl)cc1)c1cc(-c2ccc[nH]2)n[nH]1 .
Reply: -26.5

Query: Specify measured activity change, negative = inhibition for Cc1ccc(C)c(Cn2nc3n(C)c(=O)c4ccc(C(=O)NC5CCCCC5)cc4n3c2=O)c1 .
Reply: -4.89

Query: Specify measured activity change, negative = inhibition for CCOc1ccc(CNC(=O)c2ncn3c2C(=O)N(C2CC2)C(C)(C(=O)NCc2ccccc2Cl)C3)cc1 (stereo not given) .
Reply: 1.47

Switching to the query record.
Query: Specify measured activity change, negative = inhibition for COc1ccccc1N1CCN(C(=O)C[C@@H]2C[C@@H](C(C)C)[C@H](CO)C=C2C)CC1 .
Reply: -5.78

---

molecular target: Guanidinoacetate N-methyltransferase (Homo sapiens); experiment: Primary Screen for Target Class Profiling of Small Molecule Inhibitors of Methyltransferases; settings: purified enzyme, MTase-Glo SAH luminescence; measured here: GAMT inhibition; at 40 µM; stronger effect = lower value; note: % is set by controls: 0 for no effect and ±100 for the full control effect
Hit rate of the full screen: of about 25,000 compounds, about 970 (3.9%) were called active. About 8% were inconclusive and are not listed. What follows is part of a selection rich in actives, with near analogues and random picks from the rest.
assay-metric: activity change, negative = inhibition (%)
Form entry: value (%) — number only.

Known results for compounds:
Query: Specify measured activity change, negative = inhibition for COCCCn1c(=O)[nH]c2cccnc21 .
Reply: -6.2

Query: Specify measured activity change, negative = inhibition for CCC1CCCCN1C(=O)Cn1c(=O)oc2cc(S(=O)(=O)N3CCCC3)ccc21 (stereo not given) .
Reply: 1.65

Query: Specify measured activity change, negative = inhibition for Cc1ccc(OCCC2CCN(C(=O)Cn3cnc4c3c(=O)n(C)c(=O)n4C)C2)cc1 (stereo not given) .
Reply: -5.09

Query: Specify measured activity change, negative = inhibition for O=C(O)CC1CCC(c2ccc(-c3ccc(Nc4ccc(C(F)(F)F)nc4)cn3)cc2)CC1 (stereo not given) .
Reply: -12.8

Query: Specify measured activity change, negative = inhibition for CCCCOc1ccc(CNC(=O)c2cc3n(n2)CC(C)(C(=O)NCc2ccccc2)N(C)C3=O)cc1 (stereo not given) .
Reply: 0.793

Query: Specify measured activity change, negative = inhibition for CCCN1C(=O)c2cc(C(=O)NCc3cc(Br)ccc3OC)nn2CC1(C)C(=O)NC1CCCC1 (stereo not given) .
Reply: -1.16

Query: Specify measured activity change, negative = inhibition for C[C@@H]1C[C@H]2O[C@@]3(O[C@@H]2C(C)(C)O)C(O)[C@@]2(C)C4CCC5C(C)(C)[C@@H](O[C@H]6OC[C@H](O)[C@@H](O)[C@@H]6O)CC[C@@]56C[C@@]46CC[C@]2(C)C13 (stereo not given in full) .
Reply: -1.51

Query: Specify measured activity change, negative = inhibition for Cc1nc2c(c(-c3ccc(O)cc3)n1)CN(C(=O)c1ccccc1C)CCC2 .
Reply: -3.52

Query: Specify measured activity change, negative = inhibition for COc1ccc(OC)c(CNC(=O)CCn2ccc3cc(S(=O)(=O)N4CCCCC4)ccc32)c1 .
Reply: 0.679

Query: Specify measured activity change, negative = inhibition for Cc1cn(CCN2CCN(c3ccccc3-c3cc(C#N)cc(C(=O)NCCCN4CCCC4)c3)CC2)c2ccccc12 .
Reply: 12

Further cases:
Query: Specify measured activity change, negative = inhibition for CN1C(=O)C2(CCN(Cc3cccn3C)C2)c2ccccc21 (stereo not given) .
Reply: -5.16

---

molecular target: Glycine N-methyltransferase (Homo sapiens); experiment: Primary Screen for Target Class Profiling of Small Molecule Inhibitors of Methyltransferases; settings: purified enzyme, MTase-Glo SAH luminescence; measured here: GNMT inhibition; at 40 µM; stronger effect = lower value; note: % is set by controls: 0 for no effect and ±100 for the full control effect
The campaign covered roughly 25,000 compounds. About 970 (3.9%) were called active. Roughly 8% stayed inconclusive and do not appear here. For the sample, actives were picked, then their nearest neighbours and some compounds at random.
assay-metric: activity change, negative = inhibition
Express your answer as a number followed by its unit.

Known results for compounds:
Query: Write activity change, negative = inhibition of CC[C@@H](c1ccc(F)c(F)c1)n1c(C(=O)OC)c(-c2ccno2)[nH]c1=S ; system used: Glycine N-methyltransferase (Homo sapiens)
Reply: 1.62%

Query: Write activity change, negative = inhibition of COC(=O)[C@]12C(=O)C(C)=C(O)[C@@]1(C)C(C)=CC1[C@@]34CC[C@@H](OC(C)=O)C(C)(C)C3[C@H](C[C@]12C)OC4=O (some centres undefined) ; system used: Glycine N-methyltransferase (Homo sapiens)
Reply: 0%

Further cases:
Query: Write activity change, negative = inhibition of CC1=C(C(=O)O)/C(=C/CO[C@@H]2O[C@H](COC(=O)/C=C/c3ccc(O)cc3)[C@@H](O)[C@H](O)[C@H]2O)C(O)C1 (some centres undefined) ; system used: Glycine N-methyltransferase (Homo sapiens)
Reply: 4.68%

Query: Write activity change, negative = inhibition of CN(CCc1ccccn1)c1ncccc1CNC(=O)C1CCc2ccccc21 (centres undefined) ; system used: Glycine N-methyltransferase (Homo sapiens)
Reply: -5.71%

Query: Write activity change, negative = inhibition of COc1ccc(-c2nc3ccncc3[nH]2)cc1 ; system used: Glycine N-methyltransferase (Homo sapiens)
Reply: -99.2%

Query: Write activity change, negative = inhibition of COCC(=O)Nc1ncncc1-c1noc([C@@H]2CCCN2Cc2cc(OC)c(OC)c(OC)c2)n1 ; system used: Glycine N-methyltransferase (Homo sapiens)
Reply: -9.35%

Query: Write activity change, negative = inhibition of CCOC(=O)c1cc2n(n1)CC(C)(C(=O)NC1CCCC1)N(c1ccc(C)c(C)c1)C2=O (centres undefined) ; system used: Glycine N-methyltransferase (Homo sapiens)
Reply: 4.07%

Query: Write activity change, negative = inhibition of COc1ccc(OC)c(CCNC(=O)CCn2ccc3cc(S(=O)(=O)N4CCCC4)ccc32)c1 ; system used: Glycine N-methyltransferase (Homo sapiens)
Reply: 1.91%

Query: Write activity change, negative = inhibition of CC1CCCC(NC(=O)C2(C)Cn3c(cc4sccc43)C(=O)N2c2ccc(Cl)cc2)C1C (centres undefined) ; system used: Glycine N-methyltransferase (Homo sapiens)
Reply: -1.5%

---

molecular target: Histamine N-methyltransferase (Homo sapiens) (UniProt P50135); assay: Primary Screen for Target Class Profiling of Small Molecule Inhibitors of Methyltransferases; conditions: purified enzyme, MTase-Glo SAH luminescence; measured here: HNMT inhibition; at 40 µM; stronger effect = lower value; note: % is set by controls: 0 for no effect and ±100 for the full control effect
Sequence (P50135 whole entry, looked up): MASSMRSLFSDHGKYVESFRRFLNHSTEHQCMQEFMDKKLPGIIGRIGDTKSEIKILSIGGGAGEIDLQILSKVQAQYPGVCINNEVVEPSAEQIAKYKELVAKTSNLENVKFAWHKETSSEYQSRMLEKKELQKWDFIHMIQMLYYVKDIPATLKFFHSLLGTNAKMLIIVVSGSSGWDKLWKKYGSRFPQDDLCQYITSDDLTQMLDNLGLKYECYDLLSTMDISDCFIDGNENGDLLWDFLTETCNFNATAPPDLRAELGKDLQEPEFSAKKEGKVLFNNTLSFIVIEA
The campaign covered roughly 25,000 compounds. About 970 (3.9%) were called active. Inconclusive results (about 8%) are left out. The full list was thinned out, with actives kept by preference.
Listing: activity change, negative = inhibition of selected molecules
Form entry: value (%) — number only.

Query: Specify measured activity change, negative = inhibition for O=C(NCc1cc2n(n1)CCCN(C1CCCCC1)C2)c1cccc(F)c1 .
Reply: -13

Query: Specify measured activity change, negative = inhibition for Cn1nccc1C(=O)N1CCC(Cc2nc(C3CC3)n[nH]2)C1 (centres undefined) .
Reply: -1.69

Query: Specify measured activity change, negative = inhibition for COc1c2c(c(C)c3c1C(=O)OC3)OC1(C)CC(O)C34OC(O)(CCC3(C)C1C2)OC4(C)C (centres undefined) .
Reply: -0.188

Query: Specify measured activity change, negative = inhibition for CC(C)(C)c1ccc(C(=O)Nc2cc(Cl)c(Br)cc2C(=O)O)cc1 .
Reply: -39.8

Query: Specify measured activity change, negative = inhibition for CNC(=O)c1ccccc1Nc1nc(Nc2ccc(N3CCOCC3)cc2OC)ncc1Cl .
Reply: -0.939

Query: Specify measured activity change, negative = inhibition for CC1(C)CCC(C)(C)c2cc3c(cc21)Sc1ccccc1N=C3c1ccc(C(=O)O)cc1 .
Reply: 11.6

Query: Specify measured activity change, negative = inhibition for COc1ccccc1N1CCN(C(=O)C[C@@H]2C[C@@H](C(C)C)[C@H](CO)C=C2C)CC1 .
Reply: -2.03

Query: Specify measured activity change, negative = inhibition for CCC(C)N1Cc2cc(NC(=O)c3ccc([N+](=O)[O-])cc3)ccc2OCC1=O (centres undefined) .
Reply: -3.63

Query: Specify measured activity change, negative = inhibition for C=C1C(=O)O[C@@H]2[C@H]1CC[C@H](C)[C@]1(CCC(=O)O1)C2(C)O (some centres undefined) .
Reply: 11.3

Query: Specify measured activity change, negative = inhibition for COc1c(C)c(OCC=C(C)C)cc2c1C(=O)NC2=O .
Reply: 6.71

Switching to the query record.
Query: Specify measured activity change, negative = inhibition for C[C@]12CCC[C@](C)(C(=O)O)C1[C@@H](O)[C@@H](O)C13CC(CCC12)C(CO)(O[C@@H]1O[C@H](CO)[C@@H](O)[C@H](O)[C@H]1O)C3 (some centres undefined) .
Reply: 7.4
